Values compiled from patent US7098340B2.

biological target: androgen receptor (Homo sapiens, UniProt P10275); assay: AR Antagonist Cell Assay (MMTV-luciferase reporter, DHT-stimulated); details: MDA-MB453-MMTV clone 54-19 cells; antagonism of 100 pM DHT, 17 hr, luciferase readout
Sequence (P10275 whole entry Q868H, form open): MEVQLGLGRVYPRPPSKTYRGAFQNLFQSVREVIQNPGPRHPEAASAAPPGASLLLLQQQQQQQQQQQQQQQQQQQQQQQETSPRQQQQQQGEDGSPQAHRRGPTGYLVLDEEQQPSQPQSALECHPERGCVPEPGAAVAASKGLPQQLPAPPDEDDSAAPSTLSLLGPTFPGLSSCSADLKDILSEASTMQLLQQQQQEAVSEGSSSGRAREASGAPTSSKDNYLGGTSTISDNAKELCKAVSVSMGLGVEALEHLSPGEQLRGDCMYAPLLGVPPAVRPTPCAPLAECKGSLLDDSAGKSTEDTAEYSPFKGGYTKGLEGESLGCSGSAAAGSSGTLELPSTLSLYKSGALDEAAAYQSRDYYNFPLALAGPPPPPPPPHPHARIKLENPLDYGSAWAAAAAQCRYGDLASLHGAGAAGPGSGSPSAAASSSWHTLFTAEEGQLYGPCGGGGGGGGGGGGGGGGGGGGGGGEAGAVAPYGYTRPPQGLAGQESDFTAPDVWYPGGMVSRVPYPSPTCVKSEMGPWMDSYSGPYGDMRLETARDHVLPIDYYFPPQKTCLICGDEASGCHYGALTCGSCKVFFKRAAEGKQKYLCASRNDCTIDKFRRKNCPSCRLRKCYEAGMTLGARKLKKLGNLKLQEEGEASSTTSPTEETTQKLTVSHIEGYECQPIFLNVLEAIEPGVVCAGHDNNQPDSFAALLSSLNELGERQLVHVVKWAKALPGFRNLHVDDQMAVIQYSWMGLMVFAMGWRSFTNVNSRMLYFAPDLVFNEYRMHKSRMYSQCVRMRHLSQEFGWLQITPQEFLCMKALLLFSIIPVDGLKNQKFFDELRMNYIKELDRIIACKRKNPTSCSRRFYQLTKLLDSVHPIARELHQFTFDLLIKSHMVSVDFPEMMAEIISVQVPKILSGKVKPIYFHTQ
pIC50: −log10 of the molar value.
quantityMeasured: pIC50

                                   compound  numericreadout
0  O=c1cc(C(F)(F)F)c2cc(Cc3ccc(S(=O)(=O)Nc4ccccc4Br)cc3)ccc2[nH]1 [Example 40]            5.25
1  O=c1cc(C(F)(F)F)c2cc(Cc3ccc(S(=O)(=O)NC4CCCCCC4)cc3)ccc2o1 [Example 166]            5.16
2  C[C@H](NS(=O)(=O)c1ccc(Cc2ccc3oc(=O)cc(C(F)(F)F)c3c2)cc1)c1ccccc1 [Example 172]            5.33

I = CCCN(CCO)S(=O)(=O)c1ccc(Cc2ccc3oc(=O)cc(C(F)(F)F)c3c2)cc1 [Example 102]
II = O=c1cc(C(F)(F)F)c2cc(Cc3ccc(S(=O)(=O)Nc4ccc(CCO)cc4)cc3)ccc2o1 [Example 151]
Out of I and II , name the one with the higher pIC50. API: response body contains the label of the selected item.
II
(II: 5.76, I: 5.54)

I = O=c1cc(C(F)(F)F)c2cc(Cc3ccc(S(=O)(=O)NC4CCC(O)CC4)cc3)ccc2o1 (centres unmarked) [Example 193]
II = O=c1cc(C(F)(F)F)c2cc(Cc3ccc(S(=O)(=O)N(CCO)C4CCCCC4)cc3)ccc2o1 [Example 95]
III = O=c1cc(C(F)(F)F)c2cc(Cc3ccc(S(=O)(=O)NCC(c4ccccc4)c4ccccc4)cc3)ccc2[nH]1 [Example 92]
Sort entries by pIC50 from minimum to maximum value. Output the labels ranked as instructed.
I, III, II
(I: 5.04, III: 5.57, II: 5.99)
